Test system: NCI-H322M lung
Assay: NCI tumour cell line growth inhibition, 384-well format
Kindly supply the reported TGI values for the records listed here.
Provide the reading as a plain figure in µM.

Query block: // TGI lookup, key: CC[C@H](Nc1nc(NCc2cnc(C)cc2C)c2ncn(C(C)C)c2n1)[C@@H](C)O
Result block: 0.501

Query block: // TGI lookup, key: CC1=C2C[C@H]3[C@@H](CC[C@@H]4CC(NS(C)(=O)=O)CC[C@@]43C)[C@@H]2CC[C@@]2(C1)O[C@@H]1C[C@H](C)CN[C@H]1[C@H]2C (some centres undefined)
Result block: 22.9

====

System: KM12 colon
Assay: NCI tumour cell line growth inhibition, 384-well format; in the data active = GI50 below about 0.43 µM; inactive = the rest
// allowed return values: active, inactive

Query block: Status in this test for CC[C@H](Nc1nc(NCc2cnc(C)cc2C)c2ncn(C(C)C)c2n1)[C@@H](C)O ?
Result block: active

Query block: Status in this test for C#CCC(Cc1cnc2nc(N)nc(N)c2n1)c1ccc(C(=O)N[C@@H](CCC(=O)O)C(=O)O)cc1 (some centres undefined) ?
Result block: active

Query block: Status in this test for COc1ncc(-c2ccc3nccc(-c4ccnnc4)c3c2)cc1NS(=O)(=O)c1ccc(F)cc1F ?
Result block: active

Query block: Status in this test for CC1=C2C[C@H]3[C@@H](CC[C@@H]4CC(NS(C)(=O)=O)CC[C@@]43C)[C@@H]2CC[C@@]2(C1)O[C@@H]1C[C@H](C)CN[C@H]1[C@H]2C (some centres undefined) ?
Result block: inactive

====

Kindly supply the reported TGI values for the records listed here.
Test system: HCT-15 colon
Assay: NCI tumour cell line growth inhibition, 384-well format

Query block: // TGI lookup, key: Cc1ccccc1N=Nc1ccc(NC(=O)c2ccnn2C)c(C)c1
Result block: > 100 µM

Query block: // TGI lookup, key: N[C@@H]1CCCC[C@H]1N.O=C([O-])C(=O)[O-].[Pt+4]
Result block: 40.8 µM

Query block: // TGI lookup, key: Cc1c(-c2c(-c3ccc(F)o3)sc3ncnc(O[C@H](Cc4ccccc4OCc4ccnn4CC(F)(F)F)C(=O)O)c23)ccc(OCCN2CCN(C)CC2)c1Cl
Result block: 22.2 µM

Query block: // TGI lookup, key: C=CC(=O)N1CCN(c2nc(=O)n(-c3c(C)ccnc3C(C)C)c3nc(-c4c(O)cccc4F)c(F)cc23)[C@@H](C)C1
Result block: > 65.3 µM

====

Test system: A549 NSCLC
Experiment: NCI tumour cell line growth inhibition, 384-well format; in the data active = GI50 below about 0.43 µM; inactive = the rest
// allowed return values: true (1) = active, false (0) = inactive

Query block: Status in this test for N[C@@H]1CCCC[C@H]1N.O=C([O-])C(=O)[O-].[Pt+4] ?
Result block: false (0)

Query block: Status in this test for Cc1ccccc1N=Nc1ccc(NC(=O)c2ccnn2C)c(C)c1 ?
Result block: false (0)

Query block: Status in this test for CC1=C2C[C@H]3[C@@H](CC[C@@H]4CC(NS(C)(=O)=O)CC[C@@]43C)[C@@H]2CC[C@@]2(C1)O[C@@H]1C[C@H](C)CN[C@H]1[C@H]2C (some centres undefined) ?
Result block: false (0)

Query block: Status in this test for COc1ncc(-c2ccc3nccc(-c4ccnnc4)c3c2)cc1NS(=O)(=O)c1ccc(F)cc1F ?
Result block: true (1)

====

Tested on: NCI-H23 lung
Assay: NCI tumour cell line growth inhibition, 384-well format
metric-name: TGI (nM)
Provide the reading as a plain figure in nM.

Query block: Param readout = TGI; param system = NCI-H23 lung; param query = CC(C)(O)CS(=O)(=O)Nc1ccc2c(c1)CCN(C(=O)COc1cccnc1)C2 ; response: value
Result block: 78.7

Query block: Param readout = TGI; param system = NCI-H23 lung; param query = CC[C@H](Nc1nc(NCc2cnc(C)cc2C)c2ncn(C(C)C)c2n1)[C@@H](C)O ; response: value
Result block: 343

Query block: Param readout = TGI; param system = NCI-H23 lung; param query = COc1ncc(-c2ccc3nccc(-c4ccnnc4)c3c2)cc1NS(=O)(=O)c1ccc(F)cc1F ; response: value
Result block: 2520

====

Kindly supply the reported GI50 values for the records listed here.
Test system: SK-OV-3 ovarian
Test: NCI tumour cell line growth inhibition, 384-well format

Query block: // GI50 lookup, key: Cc1ccccc1N=Nc1ccc(NC(=O)c2ccnn2C)c(C)c1
Result block: > 100 µM

Query block: // GI50 lookup, key: N[C@@H]1CCCC[C@H]1N.O=C([O-])C(=O)[O-].[Pt+4]
Result block: 31 µM

Query block: // GI50 lookup, key: C=CC(=O)N1CCN(c2nc(=O)n(-c3c(C)ccnc3C(C)C)c3nc(-c4c(O)cccc4F)c(F)cc23)[C@@H](C)C1
Result block: 46.5 µM

Query block: // GI50 lookup, key: CC1=C2C[C@H]3[C@@H](CC[C@@H]4CC(NS(C)(=O)=O)CC[C@@]43C)[C@@H]2CC[C@@]2(C1)O[C@@H]1C[C@H](C)CN[C@H]1[C@H]2C (some centres undefined)
Result block: 3.8 µM

====

Tested on: MDA-MB-231 breast
Assay: NCI tumour cell line growth inhibition, 384-well format
Kindly supply the reported TGI values for the records listed here.

Query block: // TGI lookup, key: CC(C)(O)CS(=O)(=O)Nc1ccc2c(c1)CCN(C(=O)COc1cccnc1)C2
Result block: 0.135 µM

Query block: // TGI lookup, key: C=CC(=O)N1CCN(c2nc(=O)n(-c3c(C)ccnc3C(C)C)c3nc(-c4c(O)cccc4F)c(F)cc23)[C@@H](C)C1
Result block: 57 µM

Query block: // TGI lookup, key: CC[C@H](Nc1nc(NCc2cnc(C)cc2C)c2ncn(C(C)C)c2n1)[C@@H](C)O
Result block: 0.767 µM

Query block: // TGI lookup, key: Cc1ccccc1N=Nc1ccc(NC(=O)c2ccnn2C)c(C)c1
Result block: > 100 µM

Query block: // TGI lookup, key: C#CCC(Cc1cnc2nc(N)nc(N)c2n1)c1ccc(C(=O)N[C@@H](CCC(=O)O)C(=O)O)cc1 (stereo not given in full)
Result block: 2.41 µM

====

Test system: M14 melanoma
Test: NCI tumour cell line growth inhibition, 384-well format
metric-name: GI50

Query block: // GI50 lookup, key: CCc1c(C#N)c(S[C@@H](C(N)=O)c2ccccc2)nc(N(C)C)c1C#N
Result block: > 100 µM

Query block: // GI50 lookup, key: Cc1ccccc1N=Nc1ccc(NC(=O)c2ccnn2C)c(C)c1
Result block: > 100 µM

Query block: // GI50 lookup, key: C=CC(=O)N1CCN(c2nc(=O)n(-c3c(C)ccnc3C(C)C)c3nc(-c4c(O)cccc4F)c(F)cc23)[C@@H](C)C1
Result block: 32.1 µM

Query block: // GI50 lookup, key: CC1=C2C[C@H]3[C@@H](CC[C@@H]4CC(NS(C)(=O)=O)CC[C@@]43C)[C@@H]2CC[C@@]2(C1)O[C@@H]1C[C@H](C)CN[C@H]1[C@H]2C (some centres undefined)
Result block: 2.49 µM

====

Kindly supply the reported TGI values for the records listed here.
System: MDA-MB-435 melanoma
Test: NCI tumour cell line growth inhibition, 384-well format
Provide the reading as a plain figure in µM.

Query block: // TGI lookup, key: CC1=C2C[C@H]3[C@@H](CC[C@@H]4CC(NS(C)(=O)=O)CC[C@@]43C)[C@@H]2CC[C@@]2(C1)O[C@@H]1C[C@H](C)CN[C@H]1[C@H]2C (some centres undefined)
Result block: 25

Query block: // TGI lookup, key: CC[C@H](Nc1nc(NCc2cnc(C)cc2C)c2ncn(C(C)C)c2n1)[C@@H](C)O
Result block: 0.693

====

System: MDA-MB-435 melanoma
// allowed return values: 1 = active, 0 = inactive

Query block: Status in this test for C#CCC(Cc1cnc2nc(N)nc(N)c2n1)c1ccc(C(=O)N[C@@H](CCC(=O)O)C(=O)O)cc1 (some centres undefined) ?
Result block: 1

Query block: Status in this test for CC[C@H](Nc1nc(NCc2cnc(C)cc2C)c2ncn(C(C)C)c2n1)[C@@H](C)O ?
Result block: 1

Query block: Status in this test for Cc1ccccc1N=Nc1ccc(NC(=O)c2ccnn2C)c(C)c1 ?
Result block: 0

Query block: Status in this test for C=CC(=O)N1CCN(c2nc(=O)n(-c3c(C)ccnc3C(C)C)c3nc(-c4c(O)cccc4F)c(F)cc23)[C@@H](C)C1 ?
Result block: 0

====

System: CAKI-1 renal
Experiment: NCI tumour cell line growth inhibition, 384-well format
metric-name: TGI

Query block: // TGI lookup, key: CC1=C2C[C@H]3[C@@H](CC[C@@H]4CC(NS(C)(=O)=O)CC[C@@]43C)[C@@H]2CC[C@@]2(C1)O[C@@H]1C[C@H](C)CN[C@H]1[C@H]2C (some centres undefined)
Result block: 15.8 µM

Query block: // TGI lookup, key: N[C@@H]1CCCC[C@H]1N.O=C([O-])C(=O)[O-].[Pt+4]
Result block: 31.3 µM

Query block: // TGI lookup, key: CCc1c(C#N)c(S[C@@H](C(N)=O)c2ccccc2)nc(N(C)C)c1C#N
Result block: > 100 µM

Query block: // TGI lookup, key: C=CC(=O)N1CCN(c2nc(=O)n(-c3c(C)ccnc3C(C)C)c3nc(-c4c(O)cccc4F)c(F)cc23)[C@@H](C)C1
Result block: > 89.7 µM
